Test system: SN12C renal
experiment-description: NCI tumour cell line growth inhibition, 48 h
Reported TGI values for the following compounds.

Examples from the recorded data:
compound	TGI
CC1CCCOc2ccc(cc2)C=Nc2ccc(cc2)CCc2ccc(cc2)N=Cc2ccc(cc2)OCCC1 (stereo not drawn)	> 100 µM
CCCCCCCC/C=C\CCCCCCCCNc1ccn(C2OC(COP(=O)(O)OC3CC(n4cc(F)c(=O)[nH]c4=O)OC3CO)C(O)C2O)c(=O)n1 (stereo not drawn)	> 100 µM

Consider now this further compound.
// lookup TGI | system=SN12C renal | key= O=C1c2ccccc2C(=O)c2c(OCC3CO3)ccc(OCC3CO3)c21 (stereo not drawn)
4.74 µM
